// reported pKd per item
Target: isolated CSH3 domain of Grb2 (Grb2_(CSH3))
Assay: MST; target protein labelled with Atto 488 NHS ester, 100 nM; unlabelled ligand serially diluted; Monolith NT.115; 25 °C; 20 mM HEPES pH 7.5, 150 mM NaCl, 0.5 mM TCEP, 0.005% Tween 20
Units for pKd: none; it is -log10 of a concentration expressed in mol/L.

Entry Shp2 PTP domain peptide WPDHGV429PSDP432GGVLDF — recorded pKd = 4.74

Entry Shp2 PTP domain peptide VERGKS366KCVK369YWPDEY — recorded pKd = 3.91

Entry Shp2 PTP domain peptide TKCNNS322KPKK325SYIATQ — recorded pKd = 3.76
